B1: glmS ribozyme (parent)
chain: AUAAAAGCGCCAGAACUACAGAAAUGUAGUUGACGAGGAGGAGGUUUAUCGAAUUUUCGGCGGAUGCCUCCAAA

Variants of: B1
Test: self-cleavage kobs at 2500 uM GlcN6P; higher = faster cleavage; RNA array
Conditions: with glucosamine-6-phosphate
Fewer inactive variants are shown than the library holds.
// NO strictly below 0.0004 s⁻¹ in self-cleavage kobs at 2500 uM GlcN6P; YES otherwise

INSERT INTO assay_data (mutation_key, qualitative_label) VALUES
  ('C50G U55A', 'NO'),
  ('A39U U57A', 'NO'),
  ('G29C C71U', 'YES'),
  ('G13A A15U A33U G37U U46C U49A', 'NO'),
  ('A39G A64G U69A', 'NO'),
  ('U30G U45A C58G', 'NO'),
  ('G13A A33C A48C', 'NO'),
  ('U47A U69G', 'NO'),
  ('U31C A36G G41A G60U', 'NO'),
  ('A12U G32U', 'NO'),
  ('C10A A14U A52U C70G', 'NO'),
  ('U47A U56G C68A', 'NO'),
  ('U56A G59A', 'NO'),
  ('G13U C67U', 'NO'),
  ('G59U A64G', 'NO'),
  ('G32A U65A', 'NO'),
  ('C16U U47A A53G U54A', 'YES'),
  ('A6C U46A U49A', 'NO'),
  ('C8U C61U', 'NO'),
  ('A6G G41A G43C C50G C61U', 'NO'),
  ('G7U G32U', 'NO'),
  ('C10G G60C C61A', 'NO'),
  ('C16A U55A', 'YES'),
  ('G35C G60U C67A', 'NO'),
  ('G44A U45G', 'YES'),
  ('G37A C71U', 'YES'),
  ('A42C U45C A48U C61A', 'NO'),
  ('A15G U45G U46C', 'YES'),
  ('G35C G66A', 'NO'),
  ('G9U G41A C67U', 'NO'),
  ('A14U G32A', 'YES'),
  ('A14U A15U', 'YES'),
  ('C16U U30G', 'YES'),
  ('G32U G40U', 'NO'),
  ('G29U U54A C67G', 'NO'),
  ('C34U G35U', 'NO'),
  ('C8G A15G U31A G40C G63C', 'NO'),
  ('A6C G29U G40A U49G C68U', 'NO'),
  ('G41A G43U A53G C71G', 'NO'),
  ('A42U G44C C68U', 'NO'),
  ('G7C C11A C16U', 'NO'),
  ('A6U A36C U55G', 'NO'),
  ('G41U C70A', 'YES'),
  ('A36C U54A C61A C67A', 'NO'),
  ('U46G U49C', 'NO'),
  ('G35C G40U A64U', 'NO'),
  ('G40C U47C', 'YES'),
  ('A6G G35A', 'NO'),
  ('G35U U65A', 'NO'),
  ('A64C C67G', 'NO'),
  ('G32C G51U U56C', 'NO'),
  ('C34A A48C U54A', 'NO'),
  ('G43A A48U C50A', 'NO'),
  ('G32U G51U A53U G66U C71U', 'NO'),
  ('A39U U47A', 'YES'),
  ('U31G U49G', 'NO'),
  ('G40C U46G', 'YES'),
  ('A12U C34A G35A U49G', 'NO'),
  ('U46A G66U', 'YES'),
  ('A6U C16U G38A', 'NO'),
  ('C10U G51C G59U C67U', 'NO'),
  ('G7U C11U A12U G38C G43U U54A', 'NO'),
  ('U46G U47C', 'YES'),
  ('U45A C61A', 'NO'),
  ('A6C G38U A42G U57C', 'NO'),
  ('A39U A52C C71A', 'NO'),
  ('A14C G66U', 'NO'),
  ('C16U A39U A42C', 'NO'),
  ('C10A G59C G66A C67A', 'NO'),
  ('C50U A52C', 'NO'),
  ('U55A U56A G66C', 'NO'),
  ('C11U G44U U69G', 'NO'),
  ('G9A A14U C61A', 'NO'),
  ('G7U C16U A36G G37U G41U C61A', 'NO'),
  ('C11U G35A', 'NO'),
  ('G13A A14U C50G C68U', 'YES'),
  ('A53G C61G G62A', 'NO'),
  ('U31G A33U', 'NO'),
  ('A12C G40U', 'YES'),
  ('A39U U45A', 'YES'),
  ('A6U G13A G35C A52C', 'NO'),
  ('A14G G29U', 'YES'),
  ('A6G C11G A42U', 'NO'),
  ('G37C U49C', 'NO'),
  ('C11U G35C U47G G63A', 'NO'),
  ('C8A C11U C70U', 'NO'),
  ('U46C U65A', 'YES'),
  ('A33U A36C G43A C70G', 'NO'),
  ('G32U U47A', 'NO'),
  ('A6U A33G U69G', 'NO'),
  ('G32U U45A', 'YES');
